System: NCI-H23 lung
Test: NCI-60 one-dose screen, 48 h (100 = growth as untreated, 0 = no growth, -100 = all killed)
Conditions: 10 µM unless noted
The panel holds about 83,000 compounds, 20% with a hit somewhere; the sample as a whole holds those more often. Calls of active or inactive are those of the source. Rule for the calls: active = growth percent below 10; inactive = the rest.
reported property: growth

INSERT INTO measurements (structure_notation, value_reported) VALUES
  ('CC(C)[C@@H]1NC(=O)[C@]2(C)CSC(=N2)c2ccnc(c2)CNC(=O)C[C@@H](/C=C/CCS)OC1=O', '12.6% (inactive)'),
  ('O=C(Nc1ccc(-n2ccc3c(NC(=O)c4ccccc4)ncnc32)cc1)c1ccc(Cl)c(C(F)(F)F)c1', '56.5% (inactive)'),
  ('CCc1cccc(C)c1NC(=O)c1sc2nc3c(cc2c1N)CCCCC3', '45.3% (inactive)'),
  ('COc1cc2nc(C(=O)N3CCCCC3)cc(Nc3ccccc3)c2cc1OC', '96.7% (inactive)'),
  ('OCCOCC(F)(F)F', '104% (inactive)');

###

Tested on: OVCAR-8 ovarian
Assay: NCI-60 one-dose screen, 48 h (100 = growth as untreated, 0 = no growth, -100 = all killed)
Conditions: 10 µM unless noted
This is part of a sample that, as a whole, favours compounds with a hit. Of some 83,000 tested, about 20% had one in any assay. The source made the active and inactive calls. The calls were made as follows: active = growth percent below 10; inactive = the rest.
reported property: growth

INSERT INTO assay_data (compound, reported_property, value_reported) VALUES
  ('COc1ccc(C2=NN(C(=O)COc3ccc(Cl)cc3)C(O)(c3cc(F)c(Cl)cc3Cl)C2)cc1OC (centres undefined)', 'growth', '5.4% (active)'),
  ('CCC1S/C(=N\N=C(/C)c2cccs2)N(c2ccccc2)C1=O (centres undefined)', 'growth', '97.3% (inactive)'),
  ('CC(C)(C)C(=O)/C=c1/[nH]c(=O)/c(=C/c2ccccc2O)s1', 'growth', '66.9% (inactive)'),
  ('COc1cc(-c2nc(SCC(=O)Nc3ccc(C(C)=O)cc3)[nH]c(=O)c2C#N)cc(OC)c1OC', 'growth', '23.2% (inactive)'),
  ('O=C(Nc1cccc(-n2ccc3c(NC(=O)c4ccccc4)nccc32)c1)Nc1ccc(Cl)c(C(F)(F)F)c1', 'growth', '4.34% (active)'),
  ('c1ccc(CNCCN(CCNCc2ccccn2)Cc2ccc3ccccc3c2)nc1', 'growth', '11.1% (inactive)'),
  ('O=C(Nc1ccc(-n2ccc3c(NC(=O)c4ccccc4)nccc32)cc1)Nc1ccc(Cl)c(Cl)c1', 'growth', '-45% (active)'),
  ('O=c1nc(N2CCOCC2)oc2c(-c3cccc4ccccc34)cccc12', 'growth', '85.2% (inactive)'),
  ('O=C(NNC(=O)c1ccc([N+](=O)[O-])cc1)c1ccc([N+](=O)[O-])cc1', 'growth', '112% (inactive)');

###

System: NCI-H460 lung
Assay: NCI-60 one-dose screen, 48 h (100 = growth as untreated, 0 = no growth, -100 = all killed)
Conditions: 10 µM unless noted
About 83,000 compounds went through this panel and 20% of them were active in at least one assay; those are over-represented in the sample as a whole. Calls of active or inactive are those of the source. The calls were made as follows: active = growth percent below 10; inactive = the rest.
reported property: growth

INSERT INTO assay_data (molecule, experimental_target, reported_property, value_reported) VALUES
  ('COc1ccc(-c2nnc(SCC(=O)Nc3ccc(C(=O)/C=C/c4ccc(OC)c(OC)c4)cc3)o2)cc1', 'NCI-H460 lung', 'growth', '95.1% (inactive)'),
  ('COc1cc(/C=C\c2cc(/C=C\c3ccc(O)c(OC)c3)n(C(=O)CNc3ccccc3OC)n2)ccc1O', 'NCI-H460 lung', 'growth', '81.6% (inactive)'),
  ('C[C@]12O[C@H]1[C@H](O)c1c(cc(O)c3c1C(=O)c1cccc(O)c1-3)C2=O', 'NCI-H460 lung', 'growth', '99.1% (inactive)'),
  ('COc1ccccc1N1CCN(CC(O)COc2c(Br)c(Br)c(Br)c3c2OC(C)(C)C3)CC1 (centres undefined)', 'NCI-H460 lung', 'growth', '15.1% (inactive)'),
  ('CCCCOc1nc2ccc(Cl)cc2cc1/C=C/C(=O)/C=C/c1ccc(Cl)cc1', 'NCI-H460 lung', 'growth', '103% (inactive)'),
  ('Nc1ncnc2c1ncn2C1OC(COC(c2ccccc2)(c2ccccc2)c2ccccc2)C(O)C1O (centres undefined)', 'NCI-H460 lung', 'growth', '25.9% (inactive)'),
  ('CCn1c(C)nc([N+](=O)[O-])c1Sc1nc(N)nc2nc[nH]c12', 'NCI-H460 lung', 'growth', '10.7% (inactive)'),
  ('O=c1c2ccccc2sc2c(NCCN3CCOCC3)nc3ccccc3c12', 'NCI-H460 lung', 'growth', '27.3% (inactive)'),
  ('Cc1nccc2c3ccc(OCc4cn(-c5ccc(Br)cc5)nn4)cc3n(CCCc3ccccc3)c12', 'NCI-H460 lung', 'growth', '33.4% (inactive)');
